pIC50: −log10 of the molar value.
Quick record of pIC50 values for purified human TDO protein (Homo sapiens (Human)).
endpoint: pIC50

{"compound": "OC(CC1c2ccccc2-c2cnnn21)C1CCC(F)(F)CC1 (stereo not drawn)", "measurement": "5.00 to 6.00"}
{"compound": "O=C(CC1c2ccccc2-n2cncc21)C1CCCCC1 (stereo not drawn)", "measurement": "> 6.00"}
{"compound": "OC(CC1c2ccccc2-n2cncc21)C1CCCCC1 (stereo not drawn)", "measurement": "> 6.00"}

====

study.system: purified human IDO protein (Homo sapiens (Human), UniProt P14902)
Sequence (P14902 whole entry P110S/E119G): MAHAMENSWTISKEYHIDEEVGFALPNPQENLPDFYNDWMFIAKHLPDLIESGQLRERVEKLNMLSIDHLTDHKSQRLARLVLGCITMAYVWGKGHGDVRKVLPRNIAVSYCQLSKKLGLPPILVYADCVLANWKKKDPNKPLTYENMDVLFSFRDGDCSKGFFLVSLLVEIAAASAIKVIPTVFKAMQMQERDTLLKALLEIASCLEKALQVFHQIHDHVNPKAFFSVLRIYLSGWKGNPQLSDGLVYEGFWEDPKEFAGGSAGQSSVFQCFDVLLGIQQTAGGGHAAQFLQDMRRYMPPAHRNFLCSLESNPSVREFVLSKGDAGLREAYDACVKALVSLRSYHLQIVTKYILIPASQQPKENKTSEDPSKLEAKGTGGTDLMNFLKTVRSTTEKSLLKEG
method.summary: Enzymatic IDO assay
pIC50: −log10 of the molar value.

{"molecule": "O=C(CC1c2ccccc2-c2cnnn21)C1CCC(F)(F)CC1 (centres unmarked) [Compound 54]", "pIC50": "< 4.00"}
{"molecule": "O=C(CC1c2ccccc2-n2cncc21)C1CCCCC1 (centres unmarked) [Compound 27]", "pIC50": "5.00 to 6.00"}
{"molecule": "c1ccc2c(c1)Cc1cn[nH]c1-2 [Compound 101]", "pIC50": "< 4.00"}
{"molecule": "OC(CC1c2ccccc2-c2nncn21)C1CCCCC1 (centres unmarked) [Compound 69]", "pIC50": "< 4.00"}
{"molecule": "O=C(CC1c2ccccc2-c2nncn21)C1CCCCC1 (centres unmarked) [Compound 43]", "pIC50": "< 4.00"}
{"molecule": "OC(CC1c2ccccc2-c2cnnn21)C1CCCCC1 (centres unmarked) [Compound 66]", "pIC50": "4.00 to 5.00"}
{"molecule": "O=C(CC1c2ccccc2-c2cnnn21)C1CCCCC1 (centres unmarked) [Compound 53]", "pIC50": "4.00 to 5.00"}
{"molecule": "OC(CC1c2ccccc2-c2cnnn21)C1CCC(F)(F)CC1 (centres unmarked) [Compound 68]", "pIC50": "4.00 to 5.00"}

FYI, the data here is from patent US9617272B2.
